# System: Bacillus subtilis
# Run description: Antimicrobial activity against Bacillus subtilis at 20 uL after 18 to 24 hrs by disk diffusion method
# Type: functional
Kindly supply the reported diameter of the inhibition zone (DIZ) values for the records listed here.

Quick request: diameter of the inhibition zone (DIZ) for each listed item, please.
1. CCCC[C@H]1C(=O)O[C@H](C)[C@H](NC(=O)c2cccc(NC=O)c2O)C(=O)O[C@@H](C)[C@@H]1OC(=O)CC(C)C [ANTIMYCIN A3]
2. CCCCOC(=O)[C@H](COC(=O)CCc1ccccc1)NC(=O)c1cccnc1O

Ans:
1: 8.5 mm; 2: 7 mm

// input: 2 compounds below; output: diameter of the inhibition zone (DIZ) for each
1. CCCCOC(=O)[C@H](COC(C)=O)NC(=O)c1cccnc1O
2. CCCCCCCC(=O)OC[C@H](NC(=O)c1cccnc1O)C(=O)OCCCC

Ans:
1: 7 mm; 2: 7 mm
